Target sequence: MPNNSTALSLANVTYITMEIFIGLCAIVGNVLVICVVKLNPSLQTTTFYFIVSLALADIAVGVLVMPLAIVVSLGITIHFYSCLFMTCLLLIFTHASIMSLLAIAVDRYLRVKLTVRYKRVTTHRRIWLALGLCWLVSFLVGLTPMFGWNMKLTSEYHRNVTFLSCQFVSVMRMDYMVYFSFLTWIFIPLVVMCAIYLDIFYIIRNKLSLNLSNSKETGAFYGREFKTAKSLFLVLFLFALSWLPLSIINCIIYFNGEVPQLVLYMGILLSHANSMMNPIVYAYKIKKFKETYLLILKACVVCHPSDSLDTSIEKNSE
readoutLabel: Ki (nM)

> print(dat)
                                   compound  observed
1  Cc1cc(-c2nc3c([nH]2)C2=NC(C)CN2C(=O)N3Cc2ccccc2)n(C)n1 (racemic)      17.2

P. C=CCN1C(=O)N2CC(C)N=C2c2[nH]c(-c3cc(OCc4ccccc4)nn3C)nc21 (racemic)
Q. CC[C@H]1CN2C(=O)N(Cc3ccccc3)c3nc(-c4cc(C)nn4C)[nH]c3C2=N1
**Q:** Between item P and item Q , which reported Ki is smaller? Let me know the label of the one you choose.
**A:** Q
